Measured target: norepinephrine transporter (NET) (Homo sapiens)
Construct: expressed in transfected cells; host or cells: HEK-293
Sequence (P23975 whole entry, species assumed): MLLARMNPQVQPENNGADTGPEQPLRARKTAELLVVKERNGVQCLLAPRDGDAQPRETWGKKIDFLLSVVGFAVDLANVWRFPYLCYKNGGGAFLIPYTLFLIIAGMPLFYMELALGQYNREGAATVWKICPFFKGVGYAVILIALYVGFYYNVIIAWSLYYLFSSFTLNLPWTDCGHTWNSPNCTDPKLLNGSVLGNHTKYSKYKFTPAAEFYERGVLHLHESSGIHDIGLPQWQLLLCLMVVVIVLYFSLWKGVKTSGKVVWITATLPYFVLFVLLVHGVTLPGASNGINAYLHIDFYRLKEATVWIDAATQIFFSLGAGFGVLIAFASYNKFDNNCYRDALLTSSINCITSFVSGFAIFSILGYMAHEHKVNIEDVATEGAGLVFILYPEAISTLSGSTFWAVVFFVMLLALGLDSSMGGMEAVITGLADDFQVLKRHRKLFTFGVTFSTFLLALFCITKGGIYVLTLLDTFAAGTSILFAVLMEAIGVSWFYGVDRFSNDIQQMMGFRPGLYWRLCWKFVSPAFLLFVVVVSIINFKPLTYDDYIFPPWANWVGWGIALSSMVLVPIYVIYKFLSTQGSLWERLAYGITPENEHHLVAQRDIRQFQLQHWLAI
Test: Norepinephrine reuptake inhibition, [3H]-NE, HEK-293 cells transfected with NE transporter cDNA
Assay type: cell-based
Run parameters: compound 1 μM; [3H]-NE; relative to control without compound = 100%; lower value = more inhibition
Measured quantity: Triple reuptake inhibition (Ratio %) NET
Quick note: give the figure in %, leave out the unit.

Entry CN(C)CCC(=O)Nc1ccc(S(=O)(=O)NCCCN2CCC(Cc3ccccc3)CC2)cc1 — recorded Triple reuptake inhibition (Ratio %) NET = 66.54

Lab note: O=C(CCN1CCCCC1)Nc1ccc(S(=O)(=O)NCCCN2CCC(Cc3ccccc3)CC2)cc1 gave Triple reuptake inhibition (Ratio %) NET of 58.66

Briefly, Triple reuptake inhibition (Ratio %) NET measured for O=S(=O)(NCCCCN1CCC(Cc2ccccc2)CC1)c1ccc(-c2ccccc2)cc1 : 44.79

For O=S(=O)(NCCN1CCC(Cc2ccccc2)CC1)c1ccc2ccccc2n1 the compound record lists Triple reuptake inhibition (Ratio %) NET as 34.97

response.value for O=S(=O)(NCCCCN1CCN(CCCc2ccccc2)CC1)c1ccc(-c2ccccc2)cc1 (field: Triple reuptake inhibition (Ratio %) NET) = 44.79

Per the records, this compound ( O=S(=O)(NCCCN1CCN(c2ccc(Cl)cc2)CC1)c1ccc(-c2ccccc2)cc1 ) has Triple reuptake inhibition (Ratio %) NET equal to 64.45

Measured Triple reuptake inhibition (Ratio %) NET of CCCCOc1ccc(S(=O)(=O)NCCN2CCC(c3c[nH]c4ccccc34)CC2)cc1 : 81.97

For CCCCOc1ccc(S(=O)(=O)NCCCN2CCN(c3cccc(C(F)(F)F)c3)CC2)cc1 the compound record lists Triple reuptake inhibition (Ratio %) NET as 93.31

Values were extracted from patent US20230212121A1.
